- Test system: Wild type
- PROTOCOL DETAILS: S. aureus survival, RN4220 and DeltatarO strains – OD600, teichoic acid synthesis inhibitors, primary screen (AID 463173)
- CONDITION DETAILS: S. aureus RN4220 wild type/DeltatarO growth, OD600, 18 h, screened at 18.75 µg/mL (by protocol)
Screen size: about 52,000 compounds; about 1,700 (3.3%) were called active. Rule as the data show it: active = survival mostly below about 52% (no sharp cut-off); inactive = mostly above about 56%. The full list was thinned out, with actives kept by preference.
Reply using exactly one outcome from yes (1) = active, no (0) = inactive

CC(=O)c1ccc(C(=O)N(Cc2cccnc2)c2nc3c(Cl)cccc3s2)cc1 no (0)
COCCNC(=O)c1cc(-c2cccc(Cl)c2)on1 no (0)
CCN(CC)C(=O)c1sc2c(c1C)c(=O)n(-c1ccc(Cl)c(Cl)c1)c(=O)n2Cc1cc(=O)n2ccccc2n1 no (0)
Cc1cccc2sc(N(Cc3cccnc3)C(=O)CCS(=O)(=O)c3ccccc3)nc12 no (0)
COc1ccc(C(=O)NCCN=C2NS(=O)(=O)c3ccccc32)cc1 no (0)
CCN(CC)C(=O)c1sc2c(c1C)c(=O)n(-c1ccc(C)c(C)c1)c(=O)n2Cc1cc(=O)n2c(C)cccc2n1 no (0)
CC1CCN(C(=O)c2cc(-c3cccc(Cl)c3)on2)CC1 yes (1)
O=C(c1cc(-c2cccc(Cl)c2)on1)N1CCCCC1 no (0)
CC(=O)N(Cc1cccnc1)c1nc2c(C)c(C)ccc2s1 no (0)

Next, consider the following compound.
# input Give the logged outcome of this assay for the following compound: Cc1ccc2sc(N(Cc3cccnc3)C(=O)CCS(=O)(=O)c3ccccc3)nc2c1C
# output yes (1)

All figures here come from PubChem BioAssay AID463173.
